- ASSAY_NAME: Cytotoxicity against human HepG2(2.2.15) cells
- Format: cell-based
ENDPOINT_LABEL: CC50

CC(C)(C)[Si](OCCc1c(N2CCNCC2)nc2ccc(Cl)cc2c1-c1ccccc1Cl)(c1ccccc1)c1ccccc1    < 18.8 µM
[N-]=[N+]=NCCc1c(N=[N+]=[N-])nc2ccc(Cl)cc2c1-c1ccccc1Cl    > 2480 µM
OCCc1c(OCc2c(F)cccc2F)nc2ccc(Cl)cc2c1-c1ccccc1Cl    109 µM
OCCc1c(N2CCOCC2)nc2ccc(Cl)cc2c1-c1ccccc1Cl    > 1590 µM
CC(C)(C)[Si](OCCc1c(N2CCCCC2)nc2ccc(Cl)cc2c1-c1ccccc1Cl)(c1ccccc1)c1ccccc1    > 969 µM

Annotate the molecule `OCCc1c(Cl)nc2ccc(Cl)cc2c1-c1ccccc1Cl` with its measured CC50.
42.5 µM

State its CC50: `ClCCc1c(Cl)nc2ccc(Cl)cc2c1-c1ccccc1Cl`
> 1400 µM

Identify CC50 associated with the molecule `CS(=O)(=O)OCCc1c(Cl)nc2ccc(Cl)cc2c1-c1ccccc1Cl`
882 µM

Give a short answer stating reported CC50 for `CC(C)(C)[Si](OCCc1c(Nn2nnc3ccccc32)nc2ccc(Cl)cc2c1-c1ccccc1Cl)(c1ccccc1)c1ccccc1` .
> 1250 µM

// fetch CC50 given entry `COc1nc2ccc(Cl)cc2c(-c2ccccc2Cl)c1CCO`
141 µM

// Input: C[C@H](Cn1cnc2c(N)ncnc21)OCP(=O)(O)O [TENOFOVIR ANHYDROUS] . Output its CC50 only.
> 1740 µM

Please indicate CC50 recorded for `CC(C)(C)[Si](OCCc1c(N2CCOCC2)nc2ccc(Cl)cc2c1-c1ccccc1Cl)(c1ccccc1)c1ccccc1`
> 1200 µM

Given `CC(C)(C)[Si](OCCc1c(OCc2c(F)cccc2F)nc2ccc(Cl)cc2c1-c1ccccc1Cl)(c1ccccc1)c1ccccc1` , respond with its CC50.
> 1870 µM

Supply recorded CC50 for `OCCc1c(N2CCNCC2)nc2ccc(Cl)cc2c1-c1ccccc1Cl` here.
< 5 µM

Give a short answer stating reported CC50 for `CC(=O)OCCc1c(Cl)nc2ccc(Cl)cc2c1-c1ccccc1Cl` .
116 µM

Please give measured CC50 of the following entry: `CC(C)(C)[Si](OCCc1c(OCc2c(Cl)cccc2Cl)nc2ccc(Cl)cc2c1-c1ccccc1Cl)(c1ccccc1)c1ccccc1`
> 1030 µM

====

- Test system: Hepatitis B virus
- ASSAY_NAME: Antiviral activity against HBV infected in human HepG 2.215 cells assessed as inhibition of HBeAg secretion by ELISA
- Assay type: functional, organism-based
- RECORDED_CONDITIONS: HepG2.2.15
pIC50: −log10 of the molar value.
ENDPOINT_LABEL: pIC50

Examples with their reported pIC50 follow.
CC(C)(C)[Si](OCCc1c(OCc2c(Cl)cccc2Cl)nc2ccc(Cl)cc2c1-c1ccccc1Cl)(c1ccccc1)c1ccccc1    < 2.99
CC(C)(C)[Si](OCCc1c(N2CCNCC2)nc2ccc(Cl)cc2c1-c1ccccc1Cl)(c1ccccc1)c1ccccc1    < 2.93
ClCCc1c(Cl)nc2ccc(Cl)cc2c1-c1ccccc1Cl    < 2.85

Read the next record carefully.
Item `CC(C)(C)[Si](OCCc1c(OCc2c(F)cccc2F)nc2ccc(Cl)cc2c1-c1ccccc1Cl)(c1ccccc1)c1ccccc1` : provide pIC50
< 2.73
